Ref: paper PMC5392334

# PROTOCOL_DESCRIPTION: Pharmacokinetic properties in rats
# Type: in vivo
# CONDITION_INFO: rat, in vivo, po, P.O. (10mg/kg)
RECORDED_ENDPOINT: AUC(0-t)

Q: Requested field: AUC(0-t). Item: C=CC(=O)N1CCC[C@@H](n2nc(-c3ccc(OCc4cccc(C)n4)c(Cl)c3)c3c(N)ncnc32)C1 [CHMFL-EGFR-26]
Ans: 4040 ng·h/mL

----------
# PROTOCOL_DESCRIPTION: Pharmacokinetic properties in rats
# Type: in vivo
# CONDITION_INFO: rat, in vivo, iv, 1 mg/kg, I.V (1mg/kg)
RECORDED_ENDPOINT: half-life (min)
Numbers only, in min.

Q: Requested field: half-life. Item: C=CC(=O)N1CCC[C@@H](n2nc(-c3ccc(OCc4cccc(C)n4)c(Cl)c3)c3c(N)ncnc32)C1
Ans: 18.6
